Numbers sourced from patent US11236129B2.

Test system: IL-17RA/IL17RC dimerization induced by IL-17A (Homo sapiens, UniProt Q16552)
Sequence (Q16552 24-155): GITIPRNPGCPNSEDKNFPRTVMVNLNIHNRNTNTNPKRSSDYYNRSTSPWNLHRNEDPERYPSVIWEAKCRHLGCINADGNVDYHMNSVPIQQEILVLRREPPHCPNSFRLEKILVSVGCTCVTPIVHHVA
Assay details: IL-17RA/IL17RC dimerization assay in response to IL-17A (PathHunter Cytokine Receptor Assay)
Type: cell-based
Measurement context: IL-17A at EC80; read-out: IC50 in IL-17RA/IL7RC dimerization assay
Residues, ends and D or L forms follow the SMILES beside them.

Compound	Test system	IC50
CC(=O)N[C@H](C(=O)N[C@@H](Cc1c[nH]cn1)C(=O)N[C@@H](Cc1ccccc1)C(=O)N[C@@H](CCC(N)=O)C(=O)N[C@@H](Cc1ccccc1)C(=O)N1CCC[C@H]1C(=O)N[C@@H](C)C(=O)N[C@@H](CC(=O)O)C(=O)N[C@@H](Cc1ccccc1)C(=O)N[C@@H](Cc1c[nH]c2ccccc12)C(=O)N[C@@H](CCC(=O)O)C(=O)N[C@@H](Cc1c[nH]c2ccccc12)C(=O)N[C@H](C(=O)N[C@@H](CCCNC(=N)N)C(=O)N[C@@H](CCCNC(=N)N)C(N)=O)C(C)C)C(C)C [SEQ ID NO: 131] (Ac-VHFQFPADFWEWVRR-NH2)	IL-17RA/IL17RC dimerization induced by IL-17A (Homo sapiens, UniProt Q16552)	< 0.5 µM
CC[C@H](C)[C@H](NC(C)=O)C(=O)N[C@@H](Cc1c[nH]cn1)C(=O)N[C@H](C(=O)N[C@H](C(=O)N[C@@H](C)C(=O)N1CCC[C@H]1C(=O)N[C@@H](C)C(=O)N[C@@H](CC(=O)O)C(=O)N[C@@H](CC(C)C)C(=O)N[C@@H](Cc1c[nH]c2ccccc12)C(=O)N[C@@H](CC(=O)O)C(=O)N[C@@H](Cc1c[nH]c2ccccc12)C(=O)N[C@H](C(=O)N[C@@H](CC(N)=O)C(=O)N[C@@H](CCCCN)C(N)=O)[C@@H](C)CC)[C@@H](C)O)C(C)C [SEQ ID NO: 179] (Ac-IHVTAPADLWDWINK-NH2)	IL-17RA/IL17RC dimerization induced by IL-17A (Homo sapiens, UniProt Q16552)	< 10 µM

* * *

Test system: IL-17RA/IL17RC dimerization induced by IL-17A (Homo sapiens, UniProt Q16552)
Assay details: IL-17RA/IL17RC dimerization assay in response to IL-17A (PathHunter Cytokine Receptor Assay)
Format: cell-based
Measurement context: IL-17A at EC80; read-out: IC50 in IL-17RA/IL7RC dimerization assay
Residues, ends and D or L forms follow the SMILES beside them.

Compound	IC50
CC[C@H](C)[C@H](NC(=O)[C@H](Cc1ccc(O)cc1)NC(=O)[C@@H](NC(=O)[C@H](Cc1c[nH]cn1)NC(=O)[C@@H](NC(C)=O)C(C)C)C(C)C)C(=O)N1CCC[C@H]1C(=O)N[C@@H](C)C(=O)N[C@@H](CCC(=O)O)C(=O)N[C@@H](CC(C)C)C(=O)N[C@@H](Cc1c[nH]c2ccccc12)C(=O)N[C@@H](CCC(=O)O)C(=O)N[C@@H](Cc1c[nH]c2ccccc12)C(=O)N[C@H](C(=O)N[C@@H](CCCNC(=N)N)C(=O)N[C@@H](CCCNC(=N)N)C(N)=O)C(C)C [SEQ ID NO: 122] (Ac-VHVYIPAELWEWVRR-NH2)	< 0.5 µM
CC[C@H](C)[C@H](NC(=O)[C@@H](NC(=O)[C@@H](NC(=O)[C@H](Cc1c[nH]cn1)NC(=O)[C@@H](NC(C)=O)C(C)C)C(C)C)[C@@H](C)O)C(=O)N1CCC[C@H]1C(=O)N[C@@H](CCC(N)=O)C(=O)N[C@@H](CC(=O)O)C(=O)N[C@@H](Cc1ccccc1)C(=O)N[C@@H](Cc1c[nH]c2ccccc12)C(=O)N[C@@H](CCC(=O)O)C(=O)N[C@@H](Cc1c[nH]c2ccccc12)C(=O)N[C@@H](Cc1ccccc1)C(=O)N[C@@H](CCCNC(=N)N)C(=O)N[C@@H](CCCNC(=N)N)C(N)=O [SEQ ID NO: 145] (Ac-VHVTIPQDFWEWFRR-NH2)	< 0.5 µM

* * *

Assay details: Isoelectric point, log D and log P (SiriusT3)
Assay type: physicochemical
Measurement context: 25±1° C., 0.15 M KCl
Residues, ends and D or L forms follow the SMILES beside them.
Assay metric: IP (isoelectric point)

Compound	Assay metric	Reported measurement
CC[C@H](C)[C@H](NC(=O)[C@@H](NC(=O)[C@@H](NC(=O)[C@H](Cc1c[nH]cn1)NC(=O)[C@@H](NC(C)=O)C(C)C)C(C)C)[C@@H](C)O)C(=O)N1CCC[C@H]1C(=O)N[C@@H](C)C(=O)N[C@@H](CC(=O)O)C(=O)N[C@@H](CC(C)C)C(=O)N[C@@H](Cc1c[nH]c2ccccc12)C(=O)N[C@@H](CCC(=O)O)C(=O)N[C@@H](Cc1c[nH]c2ccccc12)C(=O)N[C@@H](Cc1ccccc1)C(=O)N[C@@H](CCCNC(=N)N)C(=O)N[C@@H](CCCNC(=N)N)C(N)=O [SEQ ID NO: 121] (Ac-VHVTIPADLWEWFRR-NH2)	IP (isoelectric point)	8.99

* * *

Assay details: Permeability test across stratified human corneal epithelial cells
Assay type: in vitro ADME
Measurement context: Permeability (Papp)
Residues, ends and D or L forms follow the SMILES beside them.
Property: Papp; scope: individual compounds

Compound	Papp
CC[C@H](C)[C@H](NC(=O)[C@@H](NC(=O)[C@@H](NC(=O)[C@H](Cc1c[nH]cn1)NC(=O)[C@@H](NC(C)=O)C(C)C)C(C)C)[C@@H](C)O)C(=O)N1CCC[C@H]1C(=O)N[C@@H](C)C(=O)N[C@@H](CCC(=O)O)C(=O)N[C@@H](CC(C)C)C(=O)N[C@@H](Cc1c[nH]c2ccccc12)C(=O)N[C@@H](CCC(=O)O)C(=O)N[C@@H](Cc1c[nH]c2ccccc12)C(=O)N[C@H](C(=O)N[C@@H](CCCNC(=N)N)C(=O)N[C@@H](CCCNC(=N)N)C(N)=O)C(C)C [SEQ ID NO: 111] (Ac-VHVTIPAELWEWVRR-NH2)	83.7 ×10⁻⁶ cm/s
CC[C@H](C)[C@H](NC(=O)[C@@H](NC(=O)[C@@H](NC(=O)[C@H](Cc1c[nH]cn1)NC(=O)[C@@H](NC(C)=O)C(C)C)C(C)C)[C@@H](C)O)C(=O)N1CCC[C@H]1C(=O)N[C@@H](CCC(N)=O)C(=O)N[C@@H](CC(=O)O)C(=O)N[C@@H](CC(C)C)C(=O)N[C@@H](Cc1c[nH]c2ccccc12)C(=O)N[C@@H](CCC(=O)O)C(=O)N[C@@H](Cc1c[nH]c2ccccc12)C(=O)N[C@H](C(=O)N[C@@H](CCCNC(=N)N)C(=O)N[C@@H](CCCNC(=N)N)C(N)=O)C(C)C [SEQ ID NO: 115] (Ac-VHVTIPQDLWEWVRR-NH2)	68.8 ×10⁻⁶ cm/s

* * *

Property: IC50; scope: individual molecules
Test system: IL-17RA/IL17RC dimerization induced by IL-17A (Homo sapiens, UniProt Q16552)
Assay details: IL-17RA/IL17RC dimerization assay in response to IL-17A (PathHunter Cytokine Receptor Assay)
Assay type: cell-based
Measurement context: IL-17A at EC80; read-out: IC50 in IL-17RA/IL7RC dimerization assay
Residues, ends and D or L forms follow the SMILES beside them.
Assay metric: IC50

Molecule	Reported measurement
CC[C@H](C)[C@H](NC(=O)[C@@H](NC(=O)[C@@H](NC(=O)[C@H](Cc1c[nH]cn1)NC(=O)[C@@H](NC(=O)CNC(=O)[C@H](C)NC(=O)CNC(=O)[C@@H]1CCCN1C(=O)[C@@H](NC(=O)CNC(=O)[C@H](C)NC(=O)CNC(=O)[C@@H]1CCCN1C(=O)[C@@H](NC(C)=O)C(C)C)C(C)C)[C@@H](C)CC)C(C)C)[C@@H](C)O)C(N)=O [SEQ ID NO: 156] (Ac-VPGAGVPGAGIHVTI-NH2)	< 0.5 µM
CC[C@H](C)[C@H](NC(C)=O)C(=O)N[C@@H](Cc1c[nH]cn1)C(=O)N[C@H](C(=O)N[C@H](C(=O)N[C@H](C(=O)N1CCC[C@H]1C(=O)N[C@@H](C)C(=O)N[C@@H](CC(=O)O)C(=O)N[C@@H](CC(C)C)C(=O)N[C@@H](Cc1c[nH]c2ccccc12)C(=O)N[C@@H](CC(=O)O)C(=O)N[C@@H](Cc1c[nH]c2ccccc12)C(=O)N[C@H](C(=O)N[C@@H](CCC(N)=O)C(=O)N[C@@H](CCCCN)C(N)=O)[C@@H](C)CC)[C@@H](C)CC)[C@@H](C)O)C(C)C [SEQ ID NO: 220] (Ac-IHVTIPADLWDWIQK-NH2)	< 10 µM
